Test: Equilibrium solubility measurements for DHO in various solvents
Format: physicochemical
Conditions: organic solvent or mixture, thermodynamic from solid; various solvents (including heptane) except water, 20° C.

- MOLECULE: "C=CC[C@@](C)(C[C@H](c1cccc(Cl)c1)[C@@H](O)c1ccc(Cl)cc1)C1=N[C@@H](C(C)C)CO1 [DHO]"
  solubility thermodynamic: "> 20 mg/mL"

----------
Assay: Equilibrium solubility measurements for DHO in various solvents
Format: physicochemical
Settings: thermodynamic from solid; water, 20° C.
ASSAY_ENDPOINT: solubility thermodynamic

- GIVEN_SMILES: "C=CC[C@@](C)(C[C@H](c1cccc(Cl)c1)[C@@H](O)c1ccc(Cl)cc1)C1=N[C@@H](C(C)C)CO1"
  REPORTED_MEASUREMENT: "< 100 µg/mL"

----------
Assay: Solubility in acetonitrile/water (9/1 volume ratio)
Assay type: physicochemical
Details: organic solvent or mixture, 10° C.
Measured solubility, listed per entry.

- COMPOUND: "C=CC[C@@]1(C)C[C@H](c2cccc(Cl)c2)[C@@H](c2ccc(Cl)cc2)N([C@H](CS(=O)(=O)C(C)C)C(C)C)C1=O [SUL]"
  RESULT_UNITS: "mg/mL"
  solubility: 25
- COMPOUND: "CC(C)[C@@H](CS(=O)(=O)C(C)C)N1C(=O)[C@@](C)(CC=O)C[C@H](c2cccc(Cl)c2)C1c1ccc(Cl)cc1 (some centres unmarked) [ALD]"
  RESULT_UNITS: "mg/mL"
  solubility: 21

Where these numbers come from: patent US11753386B2
